Experiment: Plasma and tissue exposure in PK/PD model
Assay type: in vivo, mouse male (C57BL/6J)
Conditions: male, C57BL/6J, mouse, lung / plasma; 300 mg/kg; 1 h, 6.5 h and 24.5 h; read-out: mean lung/plasma ratio
Measured endpoint: Kp

>>> print(df.to_string())
                                   compound  measured_endpoint  test_result
0  CC(C)C(C(=O)O)c1ccc(C2(NC(=O)c3cc4c(Cl)c(Cl)ccc4n3C)CCOC2)cc1 (racemic)                 Kp          0.4

----------
Experiment: Plasma and tissue exposure in PK/PD model
Format: in vivo, mouse male (C57BL/6J)
Conditions: male, C57BL/6J, mouse, brain / plasma; 300 mg/kg; 1 h, 6.5 h and 24.5 h; read-out: mean brain/plasma ratio
Measured endpoint: Kp

>>> df
                                   compound  measured_endpoint  test_result
0  CC(C)C(C(=O)O)c1ccc(C2(NC(=O)c3cc4c(Cl)c(Cl)ccc4n3C)CCOC2)cc1 (racemic)                 Kp         0.01
